# assayName: P. aeruginosa biofilm formation inhibitors, primary screen, PAO1 strain, BacTiter-Glo luminescence, LB-PBS (AID 1144)
# conditionDescription: 12 h, higher = more signal
measurementName: z-score
Respond numerically, and do not add a unit to the figure.

Recorded z-score, per entry:
compound | z-score
CC=CC(O)C1C=CC2C(=O)N(c3ccccc3)C(=O)C2N1Nc1ccc(C(C)C)cc1 (stereo not given) | -0.302
C=C(COC)C(=O)CC[C@@H](OC(=O)c1cccnc1)c1ccc(CO)o1 | -0.0359
O=C1C2C=CC(C(O)c3ccc(-c4ccccc4)s3)N(n3cnnc3)C2C(=O)N1Cc1ccccc1 (stereo not given) | -0.669
C=CC[C@]1(C(=O)N2CCOCC2)N=C(c2ccc(OCCCO)cc2)O[C@H]1c1ccccc1 | -0.248
COC(=O)[C@@]1(Cc2ccccc2)[C@H]2c3cc(C(=O)N(C)C)n(Cc4c(-c5ccccc5)noc4C)c3C[C@H]2CN1C(=O)c1ccccc1 | -0.0247
COCCOC(=O)N1C(=O)[C@@]2(c3cc(C#CC4(O)CCCCCC4)ccc31)[C@H](C(=O)N1CCCCCCC1)[C@H]1C(=O)O[C@H](c3ccccc3)[C@H](c3ccccc3)N1[C@@H]2c1ccccc1OCCO | 0.148
O=C1O[C@@H](c2ccccc2)[C@@H](c2ccccc2)N2[C@@H](c3ccc(OCCO)cc3)[C@]3(C(=O)Nc4ccccc43)[C@@H](C(=O)Nc3nc4ccccc4s3)[C@H]12 | -1.78
C=CC(COC(C)=O)NS(=O)(=O)c1ccc(Br)cc1 (stereo not given) | 0.465
Cc1ccc(S[C@]2(C(=O)NCC(C)C)CC(=O)N(Cc3ccccc3)[C@@H]2c2ccc(CO)cc2I)cc1 | 0.229

Req: Given the entry N#Cc1ccc(NN2C(C(O)c3ccc([N+](=O)[O-])cc3)C=CC3C(=O)N(c4ccccc4)C(=O)C32)cc1 (stereo not given) , report its measured z-score.
Resp: -0.245

* * *

# assayName: COS7 lysate on small-molecule microarray, probe aHis, 635 nm (AID 1123);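 note: z-score combines 667nm fluorescence intensity with signal-to-noise per printed compound spot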
# conditionDescription: COS7 cell lysate, fluorescence, higher = more signal
measurementName: composite z-score
Please give only the number in your answer, with no unit.

molecule | resultNumber
COCCOC(=O)N1C(=O)[C@@]2(c3cc(C#Cc4ccc(OC)cc4)ccc31)[C@H](C(=O)N1CCN(c3ncccn3)CC1)[C@H]1C(=O)O[C@H](c3ccccc3)[C@H](c3ccccc3)N1[C@@H]2c1ccc(O)cc1 | 0.722
O=C1OCCC=C[C@H]2OC34C=CCN(c5ccc6ccccc6c5)C(=O)[C@H]3N(CCCCCO)C(=O)[C@@H]4C12 (stereo partly drawn) | 2.11

Req: Given the molecule O=C1OCCC=C[C@H]2OC34C=CCN(Cc5ccccc5)C(=O)[C@H]3N(CCCCCCO)C(=O)[C@@H]4C12 (stereo partly drawn) , what is its reported composite z-score?
Resp: 1.2

Req: Entry to check: CCN(CC)c1ccc(N2CC=CC34O[C@@H]5/C=C\CCCOC(=O)C5[C@H]3C(=O)N(C(CO)C(C)C)[C@@H]4C2=O)cc1 (stereo partly drawn)
Resp: -0.21

Req: # repeat for COCCOC(=O)N1C(=O)[C@@]2(c3cc(C#CCC(C(=O)OC)C(=O)OC)ccc31)[C@H](C(=O)N1CCN(c3ncccn3)CC1)[C@H]1C(=O)O[C@H](c3ccccc3)[C@H](c3ccccc3)N1[C@@H]2c1ccc(OCCO)cc1
Resp: 1.35

Req: # iterate: C[N+](C)(C)CCCCCCNC(=O)[C@H]1C[C@H]2C(=O)N3CCC[C@H]3C(=O)N2[C@H]1c1ccc(O)cc1
Resp: 1.73

Req: Also, COc1ccc([Si](C)(C)[C@@H]2[C@@H](CC(=O)N(CCO)Cc3ccccc3)O[C@]3(C(=O)N(C)c4ccccc43)[C@H]2C)cc1 please.
Resp: 0.855

Req: Moving on to the next molecule: O=C1OCCC=C[C@H]2OC34C=CCN(Cc5ccccc5)C(=O)[C@H]3N(CCCCCO)C(=O)[C@@H]4C12 (stereo partly drawn)
Resp: 2.1

* * *

# targetDesc: Torsin-1A (Homo sapiens)
# assayName: small-molecule binders of mutant TOR1A in lysate, primary screen, cell lysate, small-molecule microarray, COS7 lysate, 635/667 nm fluorescence (AID 1150);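 note: score pools 667 nm emission and signal to noise measuring lysate protein binding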
# conditionDescription: COS7 hTOR1A mutant lysate, 635 nm fluorescence, higher = more signal
measurementName: composite z-score
Give the figure only, with no unit attached.

compound | composite z-score
COCCOC(=O)N1C(=O)[C@@]2(c3cc(C#Cc4ccc(OC)cc4)ccc31)[C@H](C(=O)N1CCN(c3ncccn3)CC1)[C@H]1C(=O)O[C@H](c3ccccc3)[C@H](c3ccccc3)N1[C@@H]2c1ccc(O)cc1 | -0.007
COCCOC(=O)N1C(=O)[C@@]2(c3cc(C#CCC(C(=O)OC)C(=O)OC)ccc31)[C@H](c1ccccc1OCCO)N1[C@H](c3ccccc3)[C@H](c3ccccc3)OC(=O)[C@H]1[C@@H]2C(=O)N1CCc2cc(OC)c(OC)cc2C1 | 0.619
C=C(C(=O)CC[C@H](OC(C)=O)c1ccc(OCCO)cc1)C(C)C | 0.909
NC(=O)NCC#Cc1ccc2c(c1)[C@]1(C(=O)N2)[C@H](C(=O)NC[C@H](O)c2ccccc2)[C@H]2C(=O)O[C@H](c3ccccc3)[C@H](c3ccccc3)N2[C@@H]1c1ccc(O)cc1 | 0.816
COCCOC(=O)N1C(=O)[C@@]2(c3cc(C#CCNC(N)=O)ccc31)[C@H](c1ccc(O)cc1)N1[C@H](c3ccccc3)[C@H](c3ccccc3)OC(=O)[C@H]1[C@@H]2C(=O)Nc1nc2ccccc2s1 | 0.587
COCCOC(=O)N1C(=O)[C@@]2(c3cc(C#CCCO)ccc31)[C@H](c1ccccc1OCCO)N1[C@H](c3ccccc3)[C@H](c3ccccc3)OC(=O)[C@H]1[C@@H]2C(=O)N1CCN(c2ncccn2)CC1 | 0.835
COCCOC(=O)N1C(=O)[C@@]2(c3cc(C#CCC(C(=O)OC)C(=O)OC)ccc31)[C@H](C(=O)N1CCN(c3ncccn3)CC1)[C@H]1C(=O)O[C@H](c3ccccc3)[C@H](c3ccccc3)N1[C@@H]2c1ccc(OCCO)cc1 | 0.542
CC(C)NC(=O)[C@@H]1c2ccccc2C(=O)N(Cc2ccccc2)[C@H]1c1ccc(CO)cc1 | -0.744
COCC1=C2[C@@H](CCc3ccccc3)OB(O)C[C@@H]2[C@@H]2C(=O)N(Cc3ccccc3)C(=O)[C@@H]2C1 | 0.0316
COC(=O)[C@@]1(Cc2ccc(OC)cc2)[C@H]2c3cc(C(=O)N4CCCC4)n(Cc4cc(F)cc5c4OCOC5)c3C[C@H]2CN1C(=O)c1ccccc1 | 0.996

Req: Given the entry CCCCC=C[C@@H](NC(=O)c1cccs1)c1ccccc1 , report its measured composite z-score.
Resp: 0.454

Req: Then this compound: CCOC(=O)C[C@H]1[C@H](OC(=O)c2ccc(C(=O)c3ccccc3)cc2)[C@@H](NC(=O)C2CCCCC2)c2cc(OCCCO)ccc2N1C(=O)c1ccccc1
Resp: 0.358

Req: Again, but for COc1cc(CO)ccc1OC(C)=O
Resp: 0.388

* * *

# assayName: yeast growth modulation, basal conditions, primary screen, YJM789 clinical isolate, OD600, 24 h (AID 1089);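 note: growth of clinical yeast isolate S. cerevisiae YJM 789 seeded 1000 cells per well; test concentration not given here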
# conditionDescription: S. cerevisiae YJM789 growth, higher = more signal, called active from +8 up or from −8 down
Here, each record is paired with measured z-score data.
The reply should be a number, written without any unit.

Example molecules with recorded z-score:
molecule | z-score
C=CCC(OC(C)=O)[C@@H]1[C@@H](N(Cc2cccc3ccccc23)C(=O)c2ccc(C)cc2)c2cc(OCCCO)ccc2N1C(=O)Cc1ccc(OC)cc1 (stereo partly specified) | -3.36
CC(C)(C)N1CC=CC23O[C@@H]4/C=C\CCCOC(=O)C4[C@H]2C(=O)N(CCO)[C@@H]3C1=O (stereo partly specified) | 0.478

Req: GET /values?readout=z-score&item= CC(=O)C1=CCC(c2ccccc2)N(S(=O)(=O)c2ccc(C)cc2)C1 (stereo unspecified)
Resp: -1.31

Req: Could you do the same for CCOC(=O)C[C@H]1[C@H](OC(=O)c2ccc(-c3ccccc3)cc2)[C@@H](NC(=O)c2ccc(-c3ccccc3)cc2)c2cc(OCCCO)ccc2N1C(=O)Cc1ccc(OC)cc1 , please?
Resp: -0.907

Req: Field entry: CN(C)C(=O)[C@@]1(CCC(=O)OC(C)(C)C)N=C(c2ccc(OCCCO)cc2)O[C@H]1c1ccccc1
Resp: -0.365

Req: Now the molecule C=C(C(=O)CC[C@H](OC(C)=O)c1ccc(OCCO)cc1)C(C)C
Resp: -24.6

Req: Try the molecule CC(C)=CCCC(C)=CC(O)C1C=CC2C(=O)N(c3ccccc3)C(=O)C2N1Nc1ccccc1 (stereo unspecified)
Resp: 0.316

Req: Note, next up: N#Cc1ccc(NN2C(C(O)C3CCCCC3)C=CC3C(=O)N(c4ccccc4)C(=O)C32)cc1 (stereo unspecified)
Resp: -0.21

Req: Okay, and C[C@]1(C(=O)NCc2ccccc2)c2ccccc2C(=O)N(Cc2ccc(OC(F)(F)F)cc2)[C@H]1c1ccc(CO)cc1 ?
Resp: -0.913

Req: Entry to check: O=C1C2C=CC(C(O)c3ccc(B(O)O)cc3)N(Nc3ccccc3)C2C(=O)N1c1ccccc1 (stereo unspecified)
Resp: 0.428

Req: What do you get for COc1ccc(C#Cc2ccc3c(c2)[C@]2(C(=O)N3)[C@H](C(=O)NC[C@H](O)c3ccccc3)[C@H]3C(=O)O[C@H](c4ccccc4)[C@H](c4ccccc4)N3[C@@H]2c2ccc(OCCO)cc2)cc1 ?
Resp: 2.85
